# Target under test: T1, recombinant human ASM protein (human, UniProt P17405 47-630)
# T1 construct: Recombinant human ASM in solution; also called acid sphingomyelinase (ASM) protein
# T1 sequence: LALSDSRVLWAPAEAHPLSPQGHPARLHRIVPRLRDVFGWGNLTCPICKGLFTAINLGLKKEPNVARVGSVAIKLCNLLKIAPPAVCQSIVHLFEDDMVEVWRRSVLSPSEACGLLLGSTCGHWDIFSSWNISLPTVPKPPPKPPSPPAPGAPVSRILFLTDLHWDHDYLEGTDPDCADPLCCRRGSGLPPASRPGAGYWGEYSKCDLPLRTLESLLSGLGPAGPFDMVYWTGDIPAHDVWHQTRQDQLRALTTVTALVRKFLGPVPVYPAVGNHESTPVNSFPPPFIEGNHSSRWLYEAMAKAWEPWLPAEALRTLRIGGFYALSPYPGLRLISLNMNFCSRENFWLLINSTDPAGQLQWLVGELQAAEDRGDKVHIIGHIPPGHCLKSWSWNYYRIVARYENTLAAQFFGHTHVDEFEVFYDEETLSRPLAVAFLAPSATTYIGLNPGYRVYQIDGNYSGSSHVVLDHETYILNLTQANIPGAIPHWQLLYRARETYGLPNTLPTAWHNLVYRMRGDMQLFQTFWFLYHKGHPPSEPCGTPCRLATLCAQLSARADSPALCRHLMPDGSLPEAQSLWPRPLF
# Assay: BLI (Octet), antibody on AHC sensor
Measurement type: kon

- Binder: "#9104v-L55 (antibody, human IgG4 S228P, lambda, V domains shown, Full-length IgG, lambda) VH: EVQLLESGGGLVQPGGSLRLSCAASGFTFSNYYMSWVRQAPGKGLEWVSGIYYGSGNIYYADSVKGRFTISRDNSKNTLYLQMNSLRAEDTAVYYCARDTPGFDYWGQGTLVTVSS VL: QSVLTQPPSASGTPGQRVTISCTGSSSNIGNNAVNWYQQLPGTAPKLLIYYDWYRPTGVPDRFSGSKSGTSASLAISGLRSEDEADYYCGAWDYSLSAYVFGGGTKLTVLG"
  Result: "193000 M⁻¹ s⁻¹"
